Tested on: KRAS G12V-dependent Ba/F3 cells
ASSAY OVERVIEW: Ba/F3 proliferation assay, KRAS G12V
Format: cell-based
ASSAY CONDITIONS: Mus musculus, BaF3, 72 h, AlamarBlue
ATTRIBUTE MEASURED: IC50 (nM)

Record excerpt, results attached:
INSERT INTO assay_data (chemical_string, result) VALUES
  ('CC(=O)N1CCN(c2cc(O[C@@H](C)[C@@H]3CCCN3C)nc(-c3noc4c3CCC[C@@]43CCCc4sc(N)c(C#N)c43)n2)CC12CC2', 32),
  ('CNC(=O)c1ccn(-c2cc(O[C@@H](C)[C@@H]3CCCN3C)nc(-c3noc4c3CCC[C@@]43CCCc4sc(N)c(C#N)c43)n2)n1', 2),
  ('C[C@H](Oc1cc(N2Cc3cnn(C)c3C2)nc(-c2onc3c2CCC[C@@]32CCCc3sc(N)c(C#N)c32)n1)[C@@H]1CCCN1C', 23),
  ('C[C@H](Oc1cc(N2CCN(C)C3(COC3)C2)nc(-c2onc3c2CCC[C@@]32CCCc3sc(N)c(C#N)c32)n1)[C@@H]1C[C@@H](F)CN1C', 1340),
  ('COCc1cn(-c2cc(O[C@@H](C)[C@@H]3CCCN3C)nc(-c3noc4c3CCC[C@@]43CCCc4sc(N)c(C#N)c43)n2)nn1', 11),
  ('C[C@H](Oc1cc(-n2cc3c(n2)CN(C)C3)nc(-c2noc3c2CCC[C@@]32CCCc3sc(N)c(C#N)c32)n1)[C@@H]1CCCN1C', 71),
  ('C[C@H](Oc1cc(N2CCN(C)C3(COC3)C2)nc(-c2noc3c2CCC[C@@]32CCCc3sc(N)c(C#N)c32)n1)[C@@H]1C[C@@H](F)CN1C', 162),
  ('C[C@H](Oc1nc(-c2noc3c2CCC[C@@]32CCCc3sc(N)c(C#N)c32)nc(N2CCNC3(CC3)C2)c1F)[C@@H]1C[C@@H](F)CN1C', 185),
  ('C[C@@H]1CN(c2nc(-c3noc4c3CCC[C@@]43CCCc4sc(N)c(C#N)c43)nc(O[C@@H](C)[C@@H]3C[C@@H](F)CN3C)c2F)CC2(CC2)N1', 108),
  ('C[C@H](Oc1cc(C2CCOCC2)nc(-c2noc3c2CCC[C@@]32CCCc3sc(N)c(C#N)c32)n1)[C@@H]1CCCN1C', 19);

A = C[C@H](Oc1cc(-n2cncn2)nc(-c2noc3c2CCC[C@@]32CCCc3sc(N)c(C#N)c32)n1)[C@@H]1CCCN1C
B = [2H]C([2H])([2H])N1C[C@H](F)C[C@H]1[C@H](C)Oc1cc(N2CCN(C)C3(CC3)C2)nc(-c2noc3c2CCC[C@@]32CCCc3sc(N)c(C#N)c32)n1
C = CO[C@@H]1C[C@@H]([C@H](C)Oc2cc(N3CCN(C)C4(COC4)C3)nc(-c3noc4c3CCC[C@@]43CCCc4sc(N)c(C#N)c43)n2)N(C)C1
D = C[C@H](Oc1cc(C2=CCOCC2)nc(-c2noc3c2CCC[C@@]32CCCc3sc(N)c(C#N)c32)n1)[C@@H]1CCCN1C
E = C[C@H](Oc1cc(N2CC[C@@H](O)C2)nc(-c2noc3c2CCC[C@@]32CCCc3sc(N)c(C#N)c32)n1)[C@@H]1CCCN1C
[ask] Hey, quick one: sort these by IC50, low to high? // ordering of labels required in reply
[reply] A, D, E, B, C
(A: 5 nM, D: 15 nM, E: 29 nM, B: 389 nM, C: 2380 nM)

A = CC(C)N1CCCN(c2cc(-c3ccn(C)n3)nc(-c3noc4c3CCC[C@@]43CCCc4sc(N)c(C#N)c43)n2)[C@@H](C)C1
B = CO[C@@H]1C[C@@H]([C@H](C)Oc2cc(N3CCNC4(CC4)C3)nc(-c3noc4c3CCC[C@@]43CCCc4sc(N)c(C#N)c43)n2)N(C)C1
C = C[C@H](Oc1cc(N2CCNC3(CCCC3)C2)nc(-c2noc3c2CCC[C@@]32CCCc3sc(N)c(C#N)c32)n1)[C@@H]1CCCN1C
[ask] Hey, quick one: sort these by IC50, low to high? // ordering of labels required in reply
[reply] A, B, C

1 = C[C@H](Oc1cc(-c2ccn(Cc3ncco3)n2)nc(-c2noc3c2CCC[C@@]32CCCc3sc(N)c(C#N)c32)n1)[C@@H]1CCCN1C
2 = C[C@H](Oc1cc(-c2ccn3ncnc3c2)nc(-c2noc3c2CCC[C@@]32CCCc3sc(N)c(C#N)c32)n1)[C@@H]1CCCN1C
[ask] Of 1 and 2 , whose reported IC50 is the larger number? API: response body contains the label of the selected item.
[reply] 1

P = C[C@H](Oc1cc(-n2ccc(C#N)n2)nc(-c2noc3c2CCC[C@@]32CCCc3sc(N)c(C#N)c32)n1)[C@@H]1CCCN1C
Q = C[C@H](Oc1cc(N2CCNC3(COC3)C2)nc(-c2noc3c2CCC[C@@]32CCCc3sc(N)c(C#N)c32)n1)[C@@H]1C[C@@H](F)CN1C
R = C[C@H](Oc1nc(-c2noc3c2CCC[C@@]32CCCc3sc(N)c(C#N)c32)nc(N2CCN(C)C3(CC3)C2)c1Cl)[C@@H]1C[C@@H](F)CN1C
[ask] Given 3 molecules, produce a descending ranking by IC50. // ordering of labels required in reply
[reply] R, Q, P
(R: 1210 nM, Q: 77 nM, P: 4 nM)
